These measurements were taken from paper PMC9482650.

test.system: T1, DLG3_1, Q92796
T1 sequence (Q92796 125-227, limits assumed, looked up): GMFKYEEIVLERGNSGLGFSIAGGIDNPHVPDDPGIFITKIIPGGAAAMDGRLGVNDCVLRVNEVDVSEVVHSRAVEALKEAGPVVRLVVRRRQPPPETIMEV
procedure.text: holdup assay
Parameters: key: below the threshold = too weak to quantify, mostly under pKd 3.1 to 4
details: plain residues with an end cap or a label only (N-terminal biotin on a linker: ado-ado)
value.kind: pKd

These solved cases illustrate the format of a correct answer.
PSDSVGKDVF [EGLN1, Q9GZT9] :: below the threshold
DAAHHDESNC [FMNL3, Q8IVF7] :: below the threshold
PLPPEEESWV [GAS2L2, Q8NHY3] :: 4.01
VYEVPVETKF [SLC26A3, P40879] :: below the threshold
NKSEPFLTWL [WWTR1, Q9GZV5] :: below the threshold
SKQFDKNAYV [CLDN10, P78369] :: below the threshold

Give measured pKd for every item shown.
1. VKQYADVEGF [HNRNPK, P61978;P61978-2]
2. IQISELETNV [SLC1A7, O00341]

below the threshold
3.91

Give measured pKd for every item shown.
1. ADEMICITTL [CACNA1D, Q01668]
2. QLKSGRDSTV [TMEM178A, Q8NBL3]
3. GSQSQVETEA [FKBP4, Q02790]
4. KLQNPNQSVV [TYRP1, P17643]
5. WAKEKQHTRL [SLC17A1, Q14916]

1. 3.56
2. 3.82
3. below the threshold
4. below the threshold
5. below the threshold

Give measured pKd for every item shown.
1. TNSKQGETTV [FZD1, Q9UP38]
2. NISARRFTLC [FAM167B, Q9BTA0]

[4.37, 3.98]

Hello, please tell me recorded pKd for this one: RSPVATATSC [DUSP5, Q16690]
below the threshold
